- SYSTEM_NAME: human full-length VWF (human, UniProt P04275 764-2813)
- EXPERIMENT_DESCRIPTION: SPR, Biacore T200, antibody captured on Protein A, full-length VWF as analyte, single-cycle kinetics;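 also: running buffer HEPES pH 7.4 with 300 mM NaCl, 3 mM EDTA and 0.05% P20, about 350 RU antibody captured, in-line reference flow cell subtracted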
Kd values by entry
Hi! Could you send only the number? It should be in nM, unit omitted.

Solved entries (count: 2):
INSERT INTO results (binder, readout_type, reported_value) VALUES
  ('3-H9_H2_VL-par (antibody, human IgG1, kappa, V domains shown, also called 3-H9_H2 (hIgG1)) VH: QQLVESGGGVVQPGRSLRLSCAASGFSLSNYDMSWVRQAPGKGLEWIGSIHAIGITYYANWAEGRFTISRDKNTVYLQMNSLRAEDTATYFCARGLVDLNMWGQGTLVTVSS VL: AIKMTQTPSSVSVAVGGTVTINCQSSQSVYSNNLLSWYQQKPGQPPKLLIYDASTLESGVPSRFKGSGSGTQFTLTISGVQCEDAATYYCQGSYYSSGWYNTFGGGTEVVVET', 'Kd', 0.0124),
  ('1-G5 (antibody, human IgG1, V domains shown, Rabbit-derived variable domains expressed as human IgG1; also called clone 1-G5) VH: QSLEESGGRLVTPGTPLTLTCSVSGFSLSSYDMTWVRQAPGKGLEWIGSIHATGITFYANWAKGRFTTSKTSTTVDLKMTSLTTEDTATYFCARGLVDLNMWGPGTLVTVSS VL: DPVMTQTASSVSAAVGGTVTINCQASQSVYNNNYLSWYQQKPGQPPKLLIYDASTLASGVPSRFSGNGSGTQFTLTISGVQCDDAATYYCQGSYYSGGWDTAFGGGTKVVVK', 'Kd', 0.0253);

Below: the item to evaluate.
Request: Given the entry 1-G5_H2_VL-par (antibody, human IgG1, kappa, V domains shown, also called 1-G5_H2 (hIgG1)) VH: QQLVESGGGVVQPGRSLRLSCAASGFSLSSYDMTWVRQAPGKGLEWIGSIHATGITFYANWAKGRFTTSKDSNTVYLQMNSLRAEDTATYFCARGLVDLNMWGQGTLVTVSS VL: DPVMTQTASSVSAAVGGTVTINCQASQSVYNNNYLSWYQQKPGQPPKLLIYDASTLASGVPSRFSGNGSGTQFTLTISGVQCDDAATYYCQGSYYSGGWDTAFGGGTKVVVKT , report its measured Kd.
Response: 0.0144
